details: in water, 303.15 K
quantity: solubility (mole fraction)

{"smiles-str": "CO/N=C1\\C[C@]2(C[C@@H]3C[C@@H](C/C=C(\\C)C[C@@H](C)/C=C/C=C4\\CO[C@@H]5[C@H](O)C(C)=C[C@@H](C(=O)O3)[C@]45O)O2)O[C@H](/C(C)=C/C(C)C)[C@H]1C", "value-measured": "1.33e-05"}

###

conditions: in isopropanol, 298.15 K

{"smiles-str": "CO/N=C1\\C[C@]2(C[C@@H]3C[C@@H](C/C=C(\\C)C[C@@H](C)/C=C/C=C4\\CO[C@@H]5[C@H](O)C(C)=C[C@@H](C(=O)O3)[C@]45O)O2)O[C@H](/C(C)=C/C(C)C)[C@H]1C", "solubility (mole fraction)": 0.0211}
